target: 肺炎支原体天然抗原(购自Microbix) (Mycoplasma pneumoniae); experiment: indirect ELISA on coated antigen (2 ug/ml), antibody 1.37 ng/ml
READOUT KIND: OD值 (450nm, 参考630nm) (OD)
Kindly provide the numeric value in OD only, without the unit symbol.

(Q) Find the recorded OD值 (450nm, 参考630nm) belonging to Anti-MP-11F5mut6 (antibody, mouse IgG1, kappa, V domains shown) VH: QVQLQQSGPELVKPGALVKISCKASGYTFTSFDINWVKQRPGQGLEWIGYIYPGDGSTKYNEKFKGKATLTADKSSSTAYMQFSSLTSEDSAVYFCTRKGGWGAGHSAMDYWGQGTSVTVSS VL: DIQMTQTTSSLSASLGDRVTISCRASQAISNYINWYQQRPDGTVKLLIYYTSRKNSGAPSRFSGSGSGTDYSLTISNLDQEDIATYFCQQGYTTPYTFGGGTKLEIKR and report it.
(A) 0.445

(Q) Find the recorded OD值 (450nm, 参考630nm) belonging to Anti-MP-11F5mut8 (antibody, mouse IgG1, kappa, V domains shown) VH: QVQLQQSGPELVKPGALVKISCKASGYTFTSFDINWVKQRPGQGLEWIGYIYPGDGSTKYNEKFKGKATLTADKSSSTAYMQFSSLTSEDSAVYFCTRKGGWGAGHSAMDYWGQGTSVTVSS VL: DIQMTQTTSSLSASLGDRVTISCRASQAISNYINWYQQRPDGTVKLLIYYTSRKNSGAPSRFSGSGSGTDYSLTISNIDQEDIATYFCQQGYTTPYTFGGGTKLEIKR and report it.
(A) 1.27

(Q) Find the recorded OD值 (450nm, 参考630nm) belonging to Anti-MP-11F5mut4 (antibody, mouse IgG1, kappa, V domains shown) VH: QVQLQQSGPELVKPGALVKISCKASGYTFTSFDINWVKQRPGQGLEWIGYIYPGDGSTKYNEKFKGKATLTADKSSSTAYMQFSSLTSENSAVYFCTRKGGWGAGHSAMDYWGQGTSVTVSS VL: DIQMTQTTSSLSASLGDRVTISCRASQAISNYINWYQQRPDGTVKLLIYYTSRKNSGAPSRFSGSGSGTDYSLTISNLDQEDIATYFCQQGYTTPYTFGGGTKLEIKR and report it.
(A) 1.26
